Hello, the source for this data is ChEMBL document CHEMBL3758174, in case you need it.

Biological target: CYP3A4 (Homo sapiens, UniProt P08684)
Sequence (P08684 whole entry): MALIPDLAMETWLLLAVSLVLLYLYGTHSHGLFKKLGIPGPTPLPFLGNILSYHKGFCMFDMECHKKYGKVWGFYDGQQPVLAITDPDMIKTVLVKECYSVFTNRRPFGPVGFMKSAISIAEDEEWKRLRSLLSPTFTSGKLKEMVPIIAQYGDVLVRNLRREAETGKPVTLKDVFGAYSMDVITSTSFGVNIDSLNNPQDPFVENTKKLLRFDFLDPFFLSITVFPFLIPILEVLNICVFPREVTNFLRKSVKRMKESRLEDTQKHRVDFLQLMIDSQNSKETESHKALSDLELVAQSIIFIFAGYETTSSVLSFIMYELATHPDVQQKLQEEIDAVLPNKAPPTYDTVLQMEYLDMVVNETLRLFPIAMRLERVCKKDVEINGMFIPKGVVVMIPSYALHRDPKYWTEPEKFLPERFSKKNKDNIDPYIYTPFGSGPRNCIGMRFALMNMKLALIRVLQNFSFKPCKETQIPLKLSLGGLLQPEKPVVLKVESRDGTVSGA
Test: Time-dependent inhibition of microsomal CYP3A4 (unknown origin) using midazolam as substrate assessed as alpha-hydroxymidazolam-d4 at 10 uM pre-incubated for 12 mins before NADPH addition formation after 30 mins by LC-MS/MS analysis
Format: ADME
Conditions: microsomes, probe midazolam
Respond with 1.0 for inhibition at 0.5 h, 10 µM values of 20% and above, 0.0 for values below.

[
  {
    "MOLECULE SMILES": "CC(C)C(=O)NCc1cnc(C(F)F)c(C(=O)Nc2ncc(-c3ccc(Cl)cc3)[nH]2)c1",
    "ASSAYED SYSTEM": "CYP3A4 (Homo sapiens, UniProt P08684)",
    "GROUP LABEL": 1.0
  },
  {
    "MOLECULE SMILES": "CC(=O)NCc1cnc(C(F)F)c(C(=O)Nc2nc(C)c(-c3ccc(C(F)(F)F)cc3)[nH]2)c1",
    "ASSAYED SYSTEM": "CYP3A4 (Homo sapiens, UniProt P08684)",
    "GROUP LABEL": 0.0
  },
  {
    "MOLECULE SMILES": "Cc1nc(NC(=O)c2cc(CNC(=O)C(C)C)cnc2C(F)F)[nH]c1-c1ccc(C(F)(F)F)cc1",
    "ASSAYED SYSTEM": "CYP3A4 (Homo sapiens, UniProt P08684)",
    "GROUP LABEL": 1.0
  },
  {
    "MOLECULE SMILES": "CC(C)C(=O)NCc1ccc(C(F)F)c(C(=O)Nc2ncc(-c3ccc(Cl)cc3)[nH]2)c1",
    "ASSAYED SYSTEM": "CYP3A4 (Homo sapiens, UniProt P08684)",
    "GROUP LABEL": 1.0
  },
  {
    "MOLECULE SMILES": "CCC(=O)NCc1cnc(C(F)F)c(C(=O)Nc2nc(C)c(-c3ccc(C(F)(F)F)cc3)[nH]2)c1",
    "ASSAYED SYSTEM": "CYP3A4 (Homo sapiens, UniProt P08684)",
    "GROUP LABEL": 0.0
  },
  {
    "MOLECULE SMILES": "Cc1nc(NC(=O)c2cc(CNC(=O)C(C)C)cnc2C(F)F)[nH]c1-c1ccc(Cl)cc1",
    "ASSAYED SYSTEM": "CYP3A4 (Homo sapiens, UniProt P08684)",
    "GROUP LABEL": 1.0
  }
]
